# TARGET DESC: Human HDAC7 (Homo sapiens)
# Construct: Amino acids 518-end with N-terminal GST tag, MW=78 kDa; GST (N); purchased BioMol, Hamburg, Germany
# Sequence (Q8WUI4 518-952 limits assumed): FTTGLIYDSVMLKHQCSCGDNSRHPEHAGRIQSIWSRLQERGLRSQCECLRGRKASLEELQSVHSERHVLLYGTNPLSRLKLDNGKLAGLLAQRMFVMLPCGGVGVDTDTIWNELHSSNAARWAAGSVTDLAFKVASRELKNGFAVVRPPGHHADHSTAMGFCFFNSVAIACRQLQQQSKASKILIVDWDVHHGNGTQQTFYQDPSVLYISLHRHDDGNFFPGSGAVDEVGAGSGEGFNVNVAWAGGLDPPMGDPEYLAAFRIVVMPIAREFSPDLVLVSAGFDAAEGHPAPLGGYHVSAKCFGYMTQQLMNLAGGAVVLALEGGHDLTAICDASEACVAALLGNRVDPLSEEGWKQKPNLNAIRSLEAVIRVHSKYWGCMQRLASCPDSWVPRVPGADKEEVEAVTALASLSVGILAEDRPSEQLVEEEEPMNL
# EXPERIMENT NOTES: In vitro HDAC7 inhibition, fluorogenic peptide assay
# Format: biochemical
# CONDITION SUMMARY: read-out: IC50 (nM) of enzyme activity HDAC7
ASSAY READOUT: IC50 (nM)
One number for each entry, in nM.

Please report IC50 for every entry that follows.
1. O=C(CCCCCNC(=O)c1[nH]c(-c2ccc(O)cc2)cc1-c1ccoc1)NO
2. O=C(CCCCCNC(=O)c1[nH]c(-c2ccc(O)cc2)cc1-c1ccsc1)NO
3. COc1ccc(-c2cc(-c3ccccc3)[nH]c2C(=O)NCCCCCC(=O)NO)cc1 [Compound A, reference compound]

**Result**
1. 72
2. 318
3. 1410

###

# TARGET DESC: Human HDAC3/NcoR2 (Homo sapiens, UniProt O15379)
# Construct: Complex of human HDAC3, full length with C-terminal His tag, MW=49.7 kDa; His (C); purchased BioMol SE-507
# Sequence (O15379 whole entry): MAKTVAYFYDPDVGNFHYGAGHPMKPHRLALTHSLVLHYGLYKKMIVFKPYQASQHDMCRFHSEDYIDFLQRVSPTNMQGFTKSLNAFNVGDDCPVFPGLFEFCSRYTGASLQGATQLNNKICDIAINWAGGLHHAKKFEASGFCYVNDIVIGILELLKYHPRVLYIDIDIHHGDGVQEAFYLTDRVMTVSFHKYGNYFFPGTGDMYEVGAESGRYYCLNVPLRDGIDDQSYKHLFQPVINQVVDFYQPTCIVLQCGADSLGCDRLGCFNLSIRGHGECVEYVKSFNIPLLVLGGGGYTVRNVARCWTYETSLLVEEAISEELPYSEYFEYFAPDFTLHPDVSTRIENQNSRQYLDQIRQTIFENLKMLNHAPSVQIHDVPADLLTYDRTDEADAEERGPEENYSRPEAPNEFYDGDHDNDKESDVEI
# Sequence (Q9Y618 395-489 partner limits assumed): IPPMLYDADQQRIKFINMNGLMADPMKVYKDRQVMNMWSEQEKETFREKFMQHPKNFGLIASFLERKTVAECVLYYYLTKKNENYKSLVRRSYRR
# EXPERIMENT NOTES: In vitro HDAC3 inhibition, fluorogenic peptide assay
# Type: biochemical
# CONDITION SUMMARY: IC50 HDAC3/IC50 HDAC6
# Procedure: All HDAC assays were performed using acetylated AMC-labeled peptide substrate: • Substrate for isoforms HDAC1, 2, 3, 4, 5, 6, 7, 9, 10, 11 and HeLa nuclear extract assays: Acetylated fluorogenic peptide from p53 residues 379-382 (RHKKAc) (BioMol. Cat. # KI-104). • Substrate for HDAC8 assays: Acetylated fluorogenic peptide from p53 residues 379-382 (RHKAcKAc) (BioMol. Cat. # KI-178). […]
Kindly state Selectivity against HDAC6 (IC50 HDACx/IC50 HDAC6) HDAC3 for each of the entries shown.
One number for each entry.

Would you please look over these solved cases?
[
  {
    "COMPOUND": "COc1ccc(-c2cc(-c3ccccc3)[nH]c2C(=O)NCCCCCC(=O)NO)cc1 [Compound A, reference compound]",
    "TEST VALUE": 28.6
  },
  {
    "COMPOUND": "O=C(CCCCCNC(=O)c1[nH]c(-c2ccccc2)cc1-c1ccc(O)cc1)NO",
    "TEST VALUE": 31.2
  }
]

Please report Selectivity against HDAC6 (IC50 HDACx/IC50 HDAC6) HDAC3 for every entry that follows.
1. COc1ccc(-c2cc(-c3ccccc3)c(C(=O)NCCCCCC(=O)NO)[nH]2)cc1 [Compound B, reference compound]
2. O=C(CCCCCNC(=O)c1[nH]c(-c2ccc(O)cc2)cc1-c1ccccc1)NO

**Result**
1: 13.0; 2: 32.9

###

# Tested on: NCI-H460
# EXPERIMENT NOTES: Cancer cell growth inhibition (CellTiter-Glo), NCI-H460
# Type: cell-based, Human
# CONDITION SUMMARY: Homo sapiens; Lung Cancer, NCI-H460, 72 h treatment
ASSAY READOUT: IC50 (µM)
Give bare numbers, in µM.

Would you please look over these solved cases?
[
  {
    "COMPOUND SMILES": "O=C(CCCCCNC(=O)c1[nH]c(-c2ccc(O)cc2)cc1-c1ccccc1)NO",
    "IC50, µM": 9.41
  },
  {
    "COMPOUND SMILES": "O=C(CCCCCNC(=O)c1[nH]c(-c2ccc(O)cc2)cc1-c1ccoc1)NO",
    "IC50, µM": 10.9
  },
  {
    "COMPOUND SMILES": "O=C(CCCCCNC(=O)c1[nH]c(-c2ccccc2)cc1-c1ccc(O)cc1)NO",
    "IC50, µM": 2.4
  }
]

**Query** Field: IC50 (NCI-H460). Entry: `O=C(CCCCCNC(=O)c1[nH]c(-c2ccc(O)cc2)cc1-c1ccsc1)NO`
**Result** 9.38

###

Kindly state Selectivity against HDAC6 (IC50 HDACx/IC50 HDAC6) HDAC8 for each of the entries shown.
# TARGET DESC: Human HDAC8 (Homo sapiens)
# Construct: Full length, MW=42 kDa, expressed in an E. coli expression system; purchased BioMol SE-145; host or cells: E. coli
# Sequence (Q9BY41 1-377): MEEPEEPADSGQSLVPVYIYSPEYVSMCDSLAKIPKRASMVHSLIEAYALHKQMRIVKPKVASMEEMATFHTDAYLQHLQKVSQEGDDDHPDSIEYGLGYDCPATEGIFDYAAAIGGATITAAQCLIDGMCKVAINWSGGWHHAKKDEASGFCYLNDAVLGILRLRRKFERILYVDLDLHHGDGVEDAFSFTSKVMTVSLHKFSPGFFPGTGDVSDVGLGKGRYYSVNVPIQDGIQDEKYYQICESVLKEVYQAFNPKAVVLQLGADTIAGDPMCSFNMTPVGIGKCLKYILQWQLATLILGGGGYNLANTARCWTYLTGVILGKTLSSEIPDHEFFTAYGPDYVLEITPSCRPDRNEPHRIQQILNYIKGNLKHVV
# EXPERIMENT NOTES: In vitro HDAC8 inhibition, fluorogenic peptide assay
# Type: biochemical
# CONDITION SUMMARY: IC50 HDAC8/IC50 HDAC6
One number for each entry.

Would you please look over these solved cases?
[
  {
    "COMPOUND": "COc1ccc(-c2cc(-c3ccccc3)[nH]c2C(=O)NCCCCCC(=O)NO)cc1 [Compound A, reference compound]",
    "TEST VALUE": 9.6
  },
  {
    "COMPOUND": "O=C(CCCCCNC(=O)c1[nH]c(-c2ccccc2)cc1-c1ccc(O)cc1)NO",
    "TEST VALUE": 54.8
  },
  {
    "COMPOUND": "COc1ccc(-c2cc(-c3ccccc3)c(C(=O)NCCCCCC(=O)NO)[nH]2)cc1 [Compound B, reference compound]",
    "TEST VALUE": 5.4
  }
]

**Query** Quick check: Selectivity against HDAC6 (IC50 HDACx/IC50 HDAC6) HDAC8 of `O=C(CCCCCNC(=O)c1[nH]c(-c2ccc(O)cc2)cc1-c1ccccc1)NO` ?
**Result** 21.3

###

# TARGET DESC: Human HDAC6 (Homo sapiens, UniProt Q9UBN7)
# Construct: Full length with N-terminal GST tag, MW=159 kDa; GST (N); purchased BioMol SE-508; host or cells: Sf9 cells, baculovirus
# Sequence (Q9UBN7 1-1215): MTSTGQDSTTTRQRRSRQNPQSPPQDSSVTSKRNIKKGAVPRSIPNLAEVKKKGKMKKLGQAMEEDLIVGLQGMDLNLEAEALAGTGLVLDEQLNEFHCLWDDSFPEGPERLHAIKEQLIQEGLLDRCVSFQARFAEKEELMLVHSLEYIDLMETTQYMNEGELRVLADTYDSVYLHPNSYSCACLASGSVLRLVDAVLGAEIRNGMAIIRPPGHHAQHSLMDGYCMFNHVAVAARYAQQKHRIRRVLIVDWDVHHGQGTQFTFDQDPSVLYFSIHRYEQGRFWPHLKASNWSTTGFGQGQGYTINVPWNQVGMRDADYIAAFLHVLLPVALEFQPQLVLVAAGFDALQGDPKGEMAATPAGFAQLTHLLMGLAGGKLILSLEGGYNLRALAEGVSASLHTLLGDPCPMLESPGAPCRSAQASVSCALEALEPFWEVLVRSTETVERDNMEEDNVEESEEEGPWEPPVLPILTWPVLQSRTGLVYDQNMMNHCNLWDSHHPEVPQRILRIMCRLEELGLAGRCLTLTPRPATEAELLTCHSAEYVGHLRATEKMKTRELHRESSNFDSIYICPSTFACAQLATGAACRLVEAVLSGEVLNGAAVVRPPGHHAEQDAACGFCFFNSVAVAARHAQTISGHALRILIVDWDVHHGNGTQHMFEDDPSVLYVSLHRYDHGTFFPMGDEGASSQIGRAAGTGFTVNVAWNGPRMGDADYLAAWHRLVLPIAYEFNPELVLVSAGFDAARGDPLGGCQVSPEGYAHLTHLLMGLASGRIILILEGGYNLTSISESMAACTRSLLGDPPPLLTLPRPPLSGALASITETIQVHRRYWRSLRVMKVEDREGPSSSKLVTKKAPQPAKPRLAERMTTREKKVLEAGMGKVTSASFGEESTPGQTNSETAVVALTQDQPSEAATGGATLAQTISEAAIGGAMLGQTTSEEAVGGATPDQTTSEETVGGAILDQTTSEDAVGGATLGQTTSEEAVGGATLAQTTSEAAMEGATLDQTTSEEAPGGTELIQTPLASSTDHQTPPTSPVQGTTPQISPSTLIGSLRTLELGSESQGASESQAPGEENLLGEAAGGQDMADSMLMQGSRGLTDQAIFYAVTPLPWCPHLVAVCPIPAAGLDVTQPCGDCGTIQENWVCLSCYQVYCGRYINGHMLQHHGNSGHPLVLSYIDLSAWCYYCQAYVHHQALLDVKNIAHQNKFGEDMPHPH
# EXPERIMENT NOTES: In vitro HDAC6 inhibition, fluorogenic peptide assay
# Format: biochemical
# CONDITION SUMMARY: read-out: IC50 (nM) of enzyme activity HDAC6
# Method: All HDAC assays were performed using acetylated AMC-labeled peptide substrate: • Substrate for isoforms HDAC1, 2, 3, 4, 5, 6, 7, 9, 10, 11 and HeLa nuclear extract assays: Acetylated fluorogenic peptide from p53 residues 379-382 (RHKKAc) (BioMol. Cat. # KI-104). • Substrate for HDAC8 assays: Acetylated fluorogenic peptide from p53 residues 379-382 (RHKAcKAc) (BioMol. Cat. # KI-178). […]
ASSAY READOUT: IC50

Would you please look over these solved cases?
[
  {
    "COMPOUND": "O=C(CCCCCNC(=O)c1[nH]c(-c2ccc(O)cc2)cc1-c1ccsc1)NO",
    "IC50": "1.6 nM"
  },
  {
    "COMPOUND": "O=C(CCCCCNC(=O)c1[nH]c(-c2ccsc2)cc1-c1ccc(O)cc1)NO",
    "IC50": "12 nM"
  },
  {
    "COMPOUND": "O=C(CCCCCNC(=O)c1[nH]c(-c2ccc(O)cc2)cc1-c1ccccc1)NO",
    "IC50": "7.6 nM"
  },
  {
    "COMPOUND": "COc1ccc(-c2cc(-c3ccccc3)[nH]c2C(=O)NCCCCCC(=O)NO)cc1 [Compound A, reference compound]",
    "IC50": "20 nM"
  },
  {
    "COMPOUND": "O=C(CCCCCNC(=O)c1[nH]c(-c2ccc(O)cc2)cc1-c1ccoc1)NO",
    "IC50": "0.6 nM"
  },
  {
    "COMPOUND": "O=C(CCCCCNC(=O)c1[nH]c(-c2ccoc2)cc1-c1ccc(O)cc1)NO",
    "IC50": "9.3 nM"
  }
]

Please report IC50 for every entry that follows.
1. COc1ccc(-c2cc(-c3ccccc3)c(C(=O)NCCCCCC(=O)NO)[nH]2)cc1 [Compound B, reference compound]
2. O=C(CCCCCNC(=O)c1[nH]c(-c2ccccc2)cc1-c1ccc(O)cc1)NO

**Result**
1: 32 nM; 2: 14 nM

These data points were gathered from patent US20150038545A1.
